The entries below come with measured pIC50 values attached.
# subjectOfTest: Muscarinic acetylcholine receptor M5 (Homo sapiens, UniProt P08912)
# Sequence (P08912 whole entry): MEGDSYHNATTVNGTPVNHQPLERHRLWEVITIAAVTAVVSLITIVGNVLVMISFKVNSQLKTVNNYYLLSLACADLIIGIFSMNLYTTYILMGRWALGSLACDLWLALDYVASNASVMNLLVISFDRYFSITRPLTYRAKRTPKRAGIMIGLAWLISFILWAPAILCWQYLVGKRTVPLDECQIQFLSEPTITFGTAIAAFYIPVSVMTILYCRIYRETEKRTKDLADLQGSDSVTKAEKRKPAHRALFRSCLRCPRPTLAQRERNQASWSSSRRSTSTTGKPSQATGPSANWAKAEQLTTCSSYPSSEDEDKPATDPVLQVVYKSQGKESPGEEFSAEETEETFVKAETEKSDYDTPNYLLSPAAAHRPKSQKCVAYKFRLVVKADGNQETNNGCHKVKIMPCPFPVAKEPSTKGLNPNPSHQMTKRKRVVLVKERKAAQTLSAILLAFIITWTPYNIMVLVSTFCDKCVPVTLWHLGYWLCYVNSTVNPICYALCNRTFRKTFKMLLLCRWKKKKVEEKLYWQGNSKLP
# testDetails: Negative allosteric modulation of human muscarinic acetylcholine receptor M5 expressed in CHO cells assessed as inhibition of acetylcholine-induced calcium mobilization incubated for 150 secs prior to acetylcholine induction by Fluo4AM staining-based fluorescence assay
Scale: negative log10 of molar concentration, which is what pIC50 denotes.

Lookup: Fill in: pIC50 of O=C(c1ccc(F)c(F)c1)N1CCN2C(=O)c3ccccc3C12c1ccc2c(c1)OCO2 (racemic) is ___
Found: 5.89

Lookup: Fill in: pIC50 of CCOc1ccc(C23c4ccccc4C(=O)N2CCN3C(=O)c2ccc(OC(C)C)cc2)cc1 (racemic) is ___
Found: 5.39

Lookup: Fill in: pIC50 of COc1ccc(C23c4ccccc4C(=O)N2CCN3C(=O)c2ccc(F)c(F)c2)cc1C (racemic) is ___
Found: 5.92

---

# testDetails: AUC (0 to infinity) in Sprague-Dawley rat at 10 mg/kg, po pretreated with 56.6 mg/kg, po 1-aminobenzotriazole
# Type: ADME, organism-based
# Parameters: dose 10 mg/kg, time infinity, route oral
# conditionSet: plasma
propertyMeasured: AUC(0-inf) (ng·h/mL)
# output: bare number, implied unit ng·h/mL

Lookup: Fill in: AUC(0-inf) of COc1ccc([C@@]23c4ccccc4C(=O)N2CCN3C(=O)c2cc(F)c(F)c(F)c2)cc1C is ___
Found: 17700

---

# testDetails: Half life in Sprague-Dawley rat at 1 mg/kg, iv
# Assay type: ADME, organism-based
# Parameters: dose 1 mg/kg, route intravenous
# conditionSet: in vivo
propertyMeasured: half-life (h)
# output: bare number, implied unit h

Lookup: Fill in: half-life of COc1ccc([C@@]23c4ccccc4C(=O)N2CCN3C(=O)c2cc(F)c(F)c(F)c2)cc1C is ___
Found: 1.08

---

# testDetails: Fraction unbound in human plasma
# Assay type: ADME, cell-free
propertyMeasured: fraction unbound
Give only the figure.

Lookup: Fill in: fraction unbound of COc1ccc([C@]23c4ccccc4C(=O)N2CCN3C(=O)c2cc(F)c(F)c(F)c2)cc1C is ___
Found: 0.013
